Values from PubChem BioAssay

Record form. Attribute: RAM network inhibition. Fill in for each entry.
# TEST: RAM signaling pathway blockade in yeast – S. cerevisiae, Pdr1DBD-CYC8 efflux-inhibited sensitized strain, primary screen (AID 1298);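 also: 0% = DMSO untreated cells without growth and 100% = 10 µM 1-NA-PP1 full growth; higher means more yeast growth rescued from 5-FOA killing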
# REPORTED CONDITIONS: S. cerevisiae cbk1-as DSE1-URA3 strain, 5-FOA growth OD615, 2 d; at 50 µM; stronger effect = higher value
Please respond with the number in % and leave the unit unwritten.

-- ask Please look up its RAM network inhibition: "CCOC(=O)c1c(NC(C)=O)no[n+]1[O-]"
-- reply 5.03

-- ask Please look up its RAM network inhibition: "O=C(CN1C(=O)CCC1=O)Nc1nc(-c2ccccn2)cs1"
-- reply 3.42

-- ask Please look up its RAM network inhibition: "CCS(=O)(=O)Nc1cc(-c2nc3cccnc3s2)ccc1C"
-- reply 5.32

-- ask Please look up its RAM network inhibition: "O=c1c(N2CCOCC2)nsnc1N1CCOCC1"
-- reply -2

-- ask Please look up its RAM network inhibition: "COc1ccc(N(CC(=O)N2CCN(C)CC2)S(=O)(=O)c2ccccc2)cc1OC"
-- reply 1.1

-- ask Please look up its RAM network inhibition: "CCOC(=O)c1c(C)[nH]c(C(=O)OC)c1CCC(=O)OC"
-- reply 2.65

-- ask Please look up its RAM network inhibition: "CCOc1ccccc1C(=O)Nc1nnc(C(C)C)s1"
-- reply 2.24

-- ask Please look up its RAM network inhibition: "COc1ccccc1N(CC(N)=O)S(=O)(=O)c1ccc(C)cc1"
-- reply 3.22

-- ask Please look up its RAM network inhibition: "CCS(=O)(=O)NCc1csc(-c2ccccc2)n1"
-- reply 5.48

-- ask Please look up its RAM network inhibition: O=C(O)c1ccc(NC(=O)C2C3CCC(C3)C2C(=O)O)cc1 (configuration not stated)
-- reply 0.46

-- ask Please look up its RAM network inhibition: CCOC(=O)C1CCCCN1Cc1cc(Cl)ccc1O (configuration not stated)
-- reply 3.98

-- ask Please look up its RAM network inhibition: "Cc1ccn2cc(CCNC(=O)c3ccc(Br)o3)nc2c1"
-- reply 4.83

* * *

# TEST: RAM signaling pathway blockade in yeast – S. cerevisiae, Pdr1DBD-CYC8 efflux-inhibited sensitized strain, primary screen (AID 1298);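 also: 0% = DMSO untreated cells without growth and 100% = 10 µM 1-NA-PP1 full growth; higher means more yeast growth rescued from 5-FOA killing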
# REPORTED CONDITIONS: S. cerevisiae cbk1-as DSE1-URA3 strain, 5-FOA growth OD615, 2 d; at 50 µM; stronger effect = higher value
Categorize each record by its RAM network inhibition using band A: < 2%; band B: ≥ 2% and < 5%; band C: ≥ 5%

-- ask In plain terms, what class is COC(=O)C1C(O)=C(C=NCC(C)N=CC2=C(O)C(C(=O)OC)C(C)(C)CC2=O)C(=O)CC1(C)C (stereo unspecified) ?
-- reply band A

-- ask In plain terms, what class is COc1ccc(OC)c(NC(=O)C2CCCNC2=O)c1 (stereo unspecified) ?
-- reply band A

-- ask In plain terms, what class is "CCN(CC)C(=O)CSc1ccccc1N" ?
-- reply band C

-- ask In plain terms, what class is "CCN(CC)c1ccc(NC(=O)CSc2nc(C)cc(=O)[nH]2)cc1" ?
-- reply band C

-- ask In plain terms, what class is "COc1cccc(-n2c(Cc3cc(=O)[nH]c(=O)[nH]3)nnc2SCC(=O)NC2CCCCC2)c1" ?
-- reply band B

-- ask In plain terms, what class is "C=CCn1c(CCCNC(=O)C(C)(C)C)nc2ccccc21" ?
-- reply band C

-- ask In plain terms, what class is "COc1ccc(NC(=O)c2ccc3c(c2)n(C)c(=O)n3C)cc1" ?
-- reply band B

-- ask In plain terms, what class is "Cc1cc(C)c2c(=O)[nH]c(SCC(=O)N3CCCCC3)nc2n1" ?
-- reply band B

-- ask In plain terms, what class is "O=C(O)c1ccc(NS(=O)(=O)c2ccc3c(c2)OCCO3)cc1" ?
-- reply band A

-- ask In plain terms, what class is "NC(=O)CSc1nnc(-c2ccncc2)n1-c1ccc(Cl)cc1" ?
-- reply band A

-- ask In plain terms, what class is "N#CCCN1CCN(S(=O)(=O)c2ccc(S(=O)(=O)NCc3ccccc3)cc2)CC1" ?
-- reply band B

* * *

Record form. Attribute: viability. Fill in for each entry.
# TEST: growth suppression of PTEN-deleted HCT116, pilot screen, cell-based, HCT116 clonal line, CellTiter-Glo (AID 824);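 also: 0% = 20 µM Hyamine control and 100% = vehicle cell control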
# REPORTED CONDITIONS: 60 h, at 10 µM, stronger effect = lower value
Records with an inconclusive call do not appear.
Please respond with the number in % and leave the unit unwritten.

-- ask Please look up its viability: O=C(NCc1ccc2c(c1)OCO2)c1ccc(NC(=O)C2CCCO2)cc1 (stereo unspecified)
-- reply 103

-- ask Please look up its viability: "NC(=O)c1cc(S(=O)(=O)Nc2cccc(F)c2)co1"
-- reply 103

-- ask Please look up its viability: "CCN1CCN(C(=O)Cn2c(=O)sc3ccccc32)CC1"
-- reply 96.6

-- ask Please look up its viability: COc1ccc(NC(=O)C2=C(C)NC(=O)NC2c2cccc(OC)c2OC)c(OC)c1 (stereo unspecified)
-- reply 103

-- ask Please look up its viability: CCOC(=O)C1CCCN(C(=O)Cn2ncc3c(=O)oc4ccc(C)cc4c32)C1 (stereo unspecified)
-- reply 95

-- ask Please look up its viability: "O=C1c2cccnc2C(=O)N1Cc1ccccc1"
-- reply 101

-- ask Please look up its viability: "COc1cccc(OCCn2c(C)c(/C=N/n3cnnc3)c3ccccc32)c1"
-- reply 87

-- ask Please look up its viability: COc1cccc2c1N1C(=O)c3c(C(=O)O)cccc3C1CC2(C)C (stereo unspecified)
-- reply 98.9

-- ask Please look up its viability: CC1CCN(CC(O)COc2ccc(F)cc2)CC1 (stereo unspecified)
-- reply 99.5

-- ask Please look up its viability: "COc1ccc(C(=O)Nc2c(F)c(F)c(F)c(F)c2F)c(OC)c1"
-- reply 102

-- ask Please look up its viability: "COc1ccc(-n2c(Cn3c(=O)sc4ccccc43)nnc2SCC(=O)N2CCOCC2)cc1"
-- reply 97

* * *

# TEST: growth suppression of PTEN-deleted HCT116, pilot screen, cell-based, HCT116 clonal line, CellTiter-Glo (AID 824);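 also: 0% = 20 µM Hyamine control and 100% = vehicle cell control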
# REPORTED CONDITIONS: 60 h, at 10 µM, stronger effect = lower value
Results filed as inconclusive are left out. Active and inactive are the calls of the source.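 Rule for the calls: active = viability at or below 27.92% in each of two runs, the all-compound median minus 4 SD; inconclusive = no clear call, values can overlap the other calls; inactive = the rest.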
Record form. Attribute: viability. Fill in for each entry.

-- ask Please look up its viability: "O=C(NCc1ccc2c(c1)OCO2)c1nnc(Cc2ccc(Cl)cc2)o1"
-- reply 103% (inactive)

-- ask Please look up its viability: Cc1ccc(CCNC(=O)C2CCCN(S(=O)(=O)c3c(C)noc3/C=C/N(C)C)C2)cc1 (stereo unspecified)
-- reply 74.1% (inactive)

-- ask Please look up its viability: "CSCC[C@@H](C(=O)Nc1ccc2c(c1)OCCO2)N1Cc2ccccc2C1=O"
-- reply 92.3% (inactive)

-- ask Please look up its viability: "COc1ccccc1-c1nnc(SCC(=O)N2CCOCC2)o1"
-- reply 95.7% (inactive)

-- ask Please look up its viability: Cc1ccccc1OCC(O)Cn1c(NCCN(C)C)nc2c1c(=O)n(C)c(=O)n2C (stereo unspecified)
-- reply 99.4% (inactive)

-- ask Please look up its viability: COc1cccc(C2CC(c3ccccc3)Nc3nc(N)nn32)c1 (stereo unspecified)
-- reply 93.5% (inactive)

-- ask Please look up its viability: "CCCn1cnc2cc(NCc3ccccn3)ccc21"
-- reply 100% (inactive)

-- ask Please look up its viability: "Cn1cnc2c1c(=O)n(Cc1ccccc1)c(=O)n2C"
-- reply 97% (inactive)

-- ask Please look up its viability: O=C(C1CC(c2ccc(F)cc2)=NO1)N1CCN(c2ccccc2)CC1 (stereo unspecified)
-- reply 95.6% (inactive)

-- ask Please look up its viability: "COc1ccc(CNC(=O)CCCNS(=O)(=O)c2cccc3nonc23)cc1"
-- reply 96.7% (inactive)

-- ask Please look up its viability: NC(=O)CC1NC(=O)c2ccccc21 (stereo unspecified)
-- reply 100% (inactive)

* * *

# TEST: RAM signaling pathway blockade in yeast – S. cerevisiae, Pdr1DBD-CYC8 efflux-inhibited sensitized strain, primary screen (AID 1298);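 also: 0% = DMSO untreated cells without growth and 100% = 10 µM 1-NA-PP1 full growth; higher means more yeast growth rescued from 5-FOA killing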
# REPORTED CONDITIONS: S. cerevisiae cbk1-as DSE1-URA3 strain, 5-FOA growth OD615, 2 d; at 50 µM; stronger effect = higher value
READOUT LABEL: RAM network inhibition (%)
Please respond with the number in % and leave the unit unwritten.

-- ask Please look up its RAM network inhibition: "Cc1sc2ncnc(NCc3ccco3)c2c1C"
-- reply 6.13

-- ask Please look up its RAM network inhibition: "O=C(c1c(Cl)nc2sccn12)N1CCCc2ccccc21"
-- reply 1.4

-- ask Please look up its RAM network inhibition: "CCOC(=O)N1CCC(N2C(=O)c3ccccc3C2=O)CC1"
-- reply -0.31

-- ask Please look up its RAM network inhibition: "NC(=O)c1nc(C2CCCCC2)nc2c1[nH]c(=O)n2-c1ccc(F)cc1"
-- reply 5.24

-- ask Please look up its RAM network inhibition: "COc1ccc(-n2c(Cc3cc(=O)[nH]c(=O)[nH]3)nnc2SCC(=O)NC2CCCC2)cc1"
-- reply 3.15

-- ask Please look up its RAM network inhibition: "Cc1cccc(CC(=O)Nc2cc(=O)n(C)c(=O)n2C)c1"
-- reply 0.48
